# target entity: Nuclear receptor ROR-gamma (Mus musculus, UniProt P51450)
# Sequence (P51450 whole entry): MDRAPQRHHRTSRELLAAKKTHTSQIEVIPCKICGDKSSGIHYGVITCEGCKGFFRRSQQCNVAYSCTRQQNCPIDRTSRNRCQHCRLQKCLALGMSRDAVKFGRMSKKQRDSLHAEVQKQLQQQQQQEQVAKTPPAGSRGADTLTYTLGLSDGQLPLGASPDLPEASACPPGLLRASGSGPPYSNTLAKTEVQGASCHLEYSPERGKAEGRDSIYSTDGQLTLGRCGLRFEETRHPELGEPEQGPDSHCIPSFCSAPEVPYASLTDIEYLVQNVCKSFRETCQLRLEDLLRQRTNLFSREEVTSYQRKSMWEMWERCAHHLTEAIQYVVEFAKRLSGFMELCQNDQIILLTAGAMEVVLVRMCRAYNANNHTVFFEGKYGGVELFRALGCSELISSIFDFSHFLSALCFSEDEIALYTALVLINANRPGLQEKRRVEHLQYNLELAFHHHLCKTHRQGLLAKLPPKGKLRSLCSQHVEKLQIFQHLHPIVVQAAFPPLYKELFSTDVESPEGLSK
# test summary: Transrepression of RORgammat in anti-CD3/CD28 stimulated C57BL/6 mouse CD4-positive T cells assessed as suppression of T cell differentiation to Th17 cells by measuring reduction in IL-17A level after 4 days by ELISA
IC50 listing for selected molecules.
Give the number; nM is assumed, so skip it.

Answered cases to consult:
CCS(=O)(=O)c1ccc(CC(=O)Nc2ccc(C(C)(C)C(=O)Nc3ccccc3)cc2)cc1; 480
CCS(=O)(=O)c1ccc(CC(=O)Nc2ccc(C(C)(C)C(=O)Nc3cc(C#N)ccn3)c(F)c2)cc1; 68
CCS(=O)(=O)c1ccc(CC(=O)Nc2ccc(C(C)(C)C(=O)Nc3ccc(F)cc3)c(F)c2)cc1; 420
CCS(=O)(=O)c1ccc(CC(=O)Nc2ccc(C(C)(C)C(=O)Nc3ccc(F)cc3F)cc2)cc1; 1300
CCS(=O)(=O)c1ccc(CC(=O)Nc2ccc(C(C)(C)C(=O)Nc3ccccc3F)cc2)cc1; 100

Value wanted: IC50 (Nuclear receptor ROR-gamma (Mus musculus, UniProt P51450)) of entry CCS(=O)(=O)c1ccc(CC(=O)Nc2ccc(C(C)(C)C(=O)Nc3ccc(F)cc3)cc2)cc1
1100

What do you get for CCS(=O)(=O)c1ccc(CC(=O)Nc2ccc(C(C)(C)C(=O)Nc3ccc(F)cc3F)c(F)c2)cc1 ?
200

What do you get for CCS(=O)(=O)c1ccc(CC(=O)Nc2ccc(C(C)(C)C(=O)Nc3cccc(F)c3)cc2)cc1 ?
290

Origin of the recorded values: ChEMBL document CHEMBL4261613
